# experimentSummary: in vivo
# conditionsUsed: Cyp1a KO, mouse, whole blood, po, 5 mg/kg
attributeMeasured: AUC(0-inf) (ng·h/mL)
Express your answer in ng·h/mL, writing the number without its unit.

Recall and state the measured AUC(0-inf) for Cn1c(=O)c2c(ncn2C)n(C)c1=O .
17700

====

# Tested on: EROD activity, non-Cyp1a component of the liver microsomes
# experimentSummary: in vitro
# conditionsUsed: mouse, pH 7.4
attributeMeasured: pKi
The meaning of pKi here: minus log10 of the concentration in molar units.

Recall and state the measured pKi for C=C[C@H]1C[N@@]2CC[C@H]1C[C@@H]2[C@@H](O)c1ccnc2ccc(OC)cc12 .
3.37

====

# experimentSummary: in vivo
# conditionsUsed: HRN (hepatic reductase null), mouse, whole blood, po, 5 mg/kg
attributeMeasured: CL/F (mL/min/kg)
Express your answer in mL/min/kg, writing the number without its unit.

Recall and state the measured CL/F for Cn1c(=O)c2c(ncn2C)n(C)c1=O [caffeine] .
1.45

====

# experimentSummary: in vivo
# conditionsUsed: C57BL/6J, mouse, whole blood, po, 5 mg/kg
attributeMeasured: AUC(0-inf) (ng·h/mL)
Express your answer in ng·h/mL, writing the number without its unit.

Recall and state the measured AUC(0-inf) for Cn1c(=O)c2c(ncn2C)n(C)c1=O .
5700

====

# targetOrSystem: recombinant human CYP1A2 (Homo sapiens, UniProt P05177)
# conditionsUsed: read-out: Km ± S.E.; EROD; rCYP1A2
attributeMeasured: Km (nM)
Express your answer in nM, writing the number without its unit.

Recall and state the measured Km for CCOc1ccc2nc3ccc(=O)cc-3oc2c1 .
1200

====

# targetOrSystem: recombinant human CYP1A1 (Homo sapiens)
# Sequence (P04798 whole entry): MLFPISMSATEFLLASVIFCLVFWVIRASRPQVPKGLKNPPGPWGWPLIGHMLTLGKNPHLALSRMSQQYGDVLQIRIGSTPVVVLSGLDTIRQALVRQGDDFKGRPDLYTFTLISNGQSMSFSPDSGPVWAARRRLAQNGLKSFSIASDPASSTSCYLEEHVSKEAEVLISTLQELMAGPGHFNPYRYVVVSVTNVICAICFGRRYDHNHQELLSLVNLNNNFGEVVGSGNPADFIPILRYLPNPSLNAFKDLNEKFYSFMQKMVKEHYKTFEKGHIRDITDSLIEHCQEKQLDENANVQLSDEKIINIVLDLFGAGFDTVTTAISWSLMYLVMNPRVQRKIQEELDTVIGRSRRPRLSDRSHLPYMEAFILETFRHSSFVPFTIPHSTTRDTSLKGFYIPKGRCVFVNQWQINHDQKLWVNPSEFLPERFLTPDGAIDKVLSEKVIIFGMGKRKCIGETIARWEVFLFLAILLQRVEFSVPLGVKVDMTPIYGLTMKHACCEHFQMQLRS
# experimentSummary: EROD by recombinant human CYP1A1 with and without quinidine
attributeMeasured: pKi
The meaning of pKi here: minus log10 of the concentration in molar units.

Recall and state the measured pKi for C=C[C@H]1C[N@@]2CC[C@H]1C[C@@H]2[C@@H](O)c1ccnc2ccc(OC)cc12 .
5.48

====

# targetOrSystem: recombinant human CYP1A2 (Homo sapiens)
# Sequence (P05177 1-516): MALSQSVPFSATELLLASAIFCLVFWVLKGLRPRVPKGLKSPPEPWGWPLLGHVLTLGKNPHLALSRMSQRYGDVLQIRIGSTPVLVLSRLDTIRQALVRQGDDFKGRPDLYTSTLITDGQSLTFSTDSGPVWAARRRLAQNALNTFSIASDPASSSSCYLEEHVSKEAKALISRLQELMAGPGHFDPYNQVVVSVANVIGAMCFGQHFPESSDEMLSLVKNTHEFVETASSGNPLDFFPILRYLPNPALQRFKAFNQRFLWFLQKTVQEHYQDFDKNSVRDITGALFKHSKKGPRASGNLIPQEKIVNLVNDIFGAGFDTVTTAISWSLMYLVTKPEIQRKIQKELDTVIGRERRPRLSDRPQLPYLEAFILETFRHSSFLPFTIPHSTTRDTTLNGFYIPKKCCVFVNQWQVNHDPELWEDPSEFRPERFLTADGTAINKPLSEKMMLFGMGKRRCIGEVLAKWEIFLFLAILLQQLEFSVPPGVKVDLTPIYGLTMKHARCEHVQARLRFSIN
# experimentSummary: MROD by recombinant human CYP1A2, inhibition by quinidine
# conditionsUsed: read-out: Ks2 ± S.E.; MROD; rCYP1A2
attributeMeasured: pKd
The meaning of pKd here: minus log10 of the concentration in molar units.

Send back recombinant human CYP1A2 (Homo sapiens) pKd of COc1ccc2nc3ccc(=O)cc-3oc2c1 only.
4.92
